system: Staphylococcus aureus; test: Antibacterial activity against Staphylococcus aureus ATCC 6538 after 18 hrs by broth microdilution method; assay type: functional; settings: ATCC 6538, 18 h
Provide the recorded MIC for the entries that follow.
Use µg/mL as the unit, but write only the number.

Quick note, MIC for Cl.Cl.NCC(NO)c1c[nH]c2ccc(I)cc12 (configuration not stated) landed at 16

The recorded MIC for CC(C)CC(NO)c1c[nH]c2ccc(F)cc12 (configuration not stated) is 32

The compound identified as Cl.Cl.Cl.NCC(NO)c1c[nH]c2cc(Cl)ccc12 (configuration not stated) registered its MIC at 16

Recorded MIC (compound CC(C)(C)OC(=O)NCC(NO)c1c[nH]c2cc(Cl)ccc12 (configuration not stated) ): 128

---

test system: Streptococcus pneumoniae; assay: Antibacterial activity against Streptococcus pneumoniae ATCC 49619 after 18 hrs by broth microdilution method; format: functional; details: ATCC 49619, 18 h
value-kind: MIC (µg/mL)
// units = µg/mL; emit number, no label

The molecule listed as CC(C)CC(c1c[nH]c2ccc(F)cc12)N(O)Cc1ccccc1 (stereo unspecified) has a reported MIC of 128

// MIC lookup, molecule = Cl.Cl.NCC(NO)c1c[nH]c2ccc(F)cc12 (stereo unspecified) , result: 64

The reported MIC of the molecule CC(C)(C)OC(=O)NCC(c1c[nH]c2ccc(Br)cc12)N(O)Cc1ccccc1 (stereo unspecified) was 128

The recorded MIC for Cl.Cl.Cl.NCC(NO)c1c[nH]c2ccc(Cl)cc12 (stereo unspecified) is 64

Lab note: measured MIC of Cl.Cl.NCC(NO)c1c[nH]c2cc(F)ccc12 (stereo unspecified) was 64

---

Please provide measured MIC for the entries that follow.
system: Staphylococcus epidermidis; assay: Antibacterial activity against Staphylococcus epidermidis CIP 103627 after 18 hrs by broth microdilution method; format: functional; settings: CIP 103627, 18 h
Give the number; µg/mL is assumed, so skip it.

Entry under test: Cl.Cl.NCC(NO)c1c[nH]c2cc(F)ccc12 (stereo not drawn) . Its MIC was 16

Item: CC(C)CC(NO)c1c[nH]c2ccc(F)cc12 (stereo not drawn) | MIC: 32

Documented MIC of CC(NO)c1c[nH]c2ccccc12 (stereo not drawn) : 64

Data point: CC(C)(C)OC(=O)NCC(NO)c1c[nH]c2cccc(Br)c12 (stereo not drawn) ; MIC = 128

Documented MIC of Cl.Cl.Cl.NCC(NO)c1c[nH]c2cc(Cl)ccc12 (stereo not drawn) : 16

Entry under test: Cl.Cl.NCC(NO)c1c[nH]c2ccc(F)cc12 (stereo not drawn) . Its MIC was 8

For reference, reported MIC for CC(C)CC(NO)c1c[nH]c2ccccc12 (stereo not drawn) stands at 32

Short answer for CC(C)(C)OC(=O)NCC(NO)c1c[nH]c2ccc(I)cc12 (stereo not drawn) : MIC was 64

Looking up CC(C)(C)OC(=O)NCC(NO)c1c[nH]c2cc(Br)ccc12 (stereo not drawn) , I see its MIC listed as 64

Query Cl.Cl.NCC(NO)c1c[nH]c2ccccc12 (stereo not drawn) yields MIC of 32

---

tested on: MRC5; experiment: Cytotoxicity against human MRC5 cells at 1 uM; assay type: cell-based; conditions: mrc5, 1 µM
value-kind: Activity

CC(C)(C)OC(=O)NCC(c1c[nH]c2cc(Br)ccc12)N(O)Cc1ccccc1 (stereo not drawn) = Non-toxic
CC(NO)c1c[nH]c2ccc(Cl)cc12 (stereo not drawn) = Non-toxic
CC(C)CC(c1c[nH]c2ccccc12)N(O)Cc1ccccc1 (stereo not drawn) = Non-toxic

---

system: Haemophilus influenzae; assay: Antibacterial activity against Haemophilus influenzae ATCC 49766 after 18 hrs by broth microdilution method; format: functional; settings: ATCC 49766, 18 h
value-kind: MIC (µg/mL)
Give just the numeric value; µg/mL need not be written.

Per the record, Cl.Cl.NCC(NO)c1c[nH]c2ccc(I)cc12 (stereo not drawn) has MIC of 64

O=C(O)c1cn(C2CC2)c2cc(N3CCNCC3)c(F)cc2c1=O has a reported MIC of 0.5

Quick note, MIC for Cl.Cl.Cl.NCC(NO)c1c[nH]c2cc(Cl)ccc12 (stereo not drawn) landed at 128

Lab note: Cl.Cl.Cl.NCC(NO)c1c[nH]c2ccc(Cl)cc12 (stereo not drawn) gave MIC of 128

Recorded result, CO/N=C(\C(=O)N[C@@H]1C(=O)N2C(C(=O)O)=C(COC(C)=O)CS[C@H]12)c1csc(N)n1 , MIC: 0.032

---

test system: Staphylococcus aureus; assay: Antibacterial activity against Staphylococcus aureus ATCC 6538 after 18 hrs by broth microdilution method; type: functional; conditions: ATCC 6538, 18 h
value-kind: MIC (µg/mL)
Value expressed in µg/mL; do not type the unit.

// MIC lookup, compound = CC(C)(C)OC(=O)NCC(NO)c1c[nH]c2ccc(Cl)cc12 (configuration not stated) , result: 64

compound CC(C)(C)OC(=O)NCC(c1c[nH]c2ccc(I)cc12)N(O)Cc1ccccc1 (configuration not stated) , MIC observed: 8

Sample Cl.Cl.NCC(NO)c1c[nH]c2cc(Br)ccc12 (configuration not stated) ; MIC observed: 16

Looking up CC(C)(C)OC(=O)NCC(NO)c1c[nH]c2ccc(Br)cc12 (configuration not stated) , I found its MIC recorded as 32

Noted for CC(C)(C)OC(=O)NCC(c1c[nH]c2ccc(Br)cc12)N(O)Cc1ccccc1 (configuration not stated) : its MIC reads 8

Form: compound = CC(NO)c1c[nH]c2ccccc12 (configuration not stated) ; MIC = 128

The recorded MIC for entry CC(C)CC(NO)c1c[nH]c2ccc(Br)cc12 (configuration not stated) equals 32

---

test system: Staphylococcus epidermidis; test: Antibacterial activity against Staphylococcus epidermidis CIP 103627 after 18 hrs by broth microdilution method; assay type: functional; conditions: CIP 103627, 18 h
value-kind: MIC (µg/mL)
Write the value in µg/mL as a bare number.

Lookup result for Cl.Cl.NCC(NO)c1c[nH]c2ccc(I)cc12 (centres undefined) ; measured MIC: 16

Note to self: MIC recorded for CC(C)CC(c1c[nH]c2ccccc12)N(O)Cc1ccccc1 (centres undefined) was 16

Reported MIC of CC(C)(C)OC(=O)NCC(c1c[nH]c2ccc(Br)cc12)N(O)Cc1ccccc1 (centres undefined) : 16

get_value(item= CC(NO)c1c[nH]c2ccc(I)cc12 (centres undefined) , readout=MIC) returns 32

# MIC (compound: CC(C)(C)OC(=O)NCC(c1c[nH]c2cc(Br)ccc12)N(O)Cc1ccccc1 (centres undefined) ) is 16

Just so you know, measured MIC for Cl.Cl.NCC(NO)c1c[nH]c2cccc(Br)c12 (centres undefined) came out at 32

compound CC(NO)c1c[nH]c2ccc(Cl)cc12 (centres undefined) , MIC observed: 16

For this compound ( CC(C)CC(NO)c1c[nH]c2ccc(Br)cc12 (centres undefined) ), measured MIC is 16

Recorded result, CC(C)CC(c1c[nH]c2ccc(F)cc12)N(O)Cc1ccccc1 (centres undefined) , MIC: 64

Form field MIC, entry Cl.Cl.NCC(NO)c1c[nH]c2ccc(Br)cc12 (centres undefined) : 8

Lookup result for CC(C)(C)OC(=O)NCC(c1c[nH]c2ccc(Cl)cc12)N(O)Cc1ccccc1 (centres undefined) ; measured MIC: 16

For record CC(C)(C)OC(=O)NCC(c1c[nH]c2cc(Cl)ccc12)N(O)Cc1ccccc1 (centres undefined) the listed MIC is 16

Item: Cl.Cl.Cl.NCC(NO)c1c[nH]c2ccc(Cl)cc12 (centres undefined) | MIC: 16

For this compound ( CC(C)CC(NO)c1c[nH]c2ccc(I)cc12 (centres undefined) ), measured MIC is 16

For this compound ( CC(C)(C)OC(=O)NCC(NO)c1c[nH]c2ccc(Cl)cc12 (centres undefined) ), measured MIC is 64

---

Exercise: for every item that follows, state its recorded log10 of MIC.
tested on: Staphylococcus aureus; assay: Antibacterial activity against Staphylococcus aureus ATCC 6538 after 18 hrs by broth microdilution method; assay type: functional; details: ATCC 6538, 18 h
Answers are given as log10 of MIC in µg/mL.

// recorded log10 of MIC for Cl.Cl.NCC(NO)c1c[nH]c2cccc(Br)c12 (configuration not stated) : 1.51

So for O=C(O)c1cn(C2CC2)c2cc(N3CCNCC3)c(F)cc2c1=O , the logged log10 of MIC turned out to be -0.30

Just so you know, measured log10 of MIC for Cl.Cl.NCC(NO)c1c[nH]c2ccc(Br)cc12 (configuration not stated) came out at 1.20

Data point: CC(NO)c1c[nH]c2ccc(Br)cc12 (configuration not stated) ; log10 of MIC = 1.81

Documented log10 of MIC of CC(C)CC(NO)c1c[nH]c2ccccc12 (configuration not stated) : 1.81

Given item CC(C)(C)OC(=O)NCC(NO)c1c[nH]c2cc(Br)ccc12 (configuration not stated) , the value recorded as its log10 of MIC is 1.81

// log10 of MIC value for CC(C)CC(NO)c1c[nH]c2ccc(I)cc12 (configuration not stated) : 1.51

log10 of MIC measured on CC(c1c[nH]c2ccccc12)N(O)Cc1ccccc1 (configuration not stated) = 2.11

For record CC(C)CC(c1c[nH]c2ccc(F)cc12)N(O)Cc1ccccc1 (configuration not stated) the listed log10 of MIC is 1.81
